Target sequence: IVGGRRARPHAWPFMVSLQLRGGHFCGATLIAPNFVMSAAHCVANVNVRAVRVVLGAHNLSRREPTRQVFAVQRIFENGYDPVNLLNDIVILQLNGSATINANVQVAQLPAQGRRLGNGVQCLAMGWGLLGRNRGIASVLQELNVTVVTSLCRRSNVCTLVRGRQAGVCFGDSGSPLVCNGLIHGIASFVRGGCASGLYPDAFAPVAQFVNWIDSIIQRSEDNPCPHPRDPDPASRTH
pKi: −log10 of the molar value.

Compound: O=C1c2ccccc2S(=O)(=O)N1Cn1nnn(-c2ccccc2)c1=O [Example 30BH]
pKi: < 5.00

Compound: O=C1c2ccccc2S(=O)(=O)N1CSc1ncccn1 [Example 30F, 2-(2-pyrimidylthiomethyl)saccharin]
pKi: < 4.07

Compound: O=C1c2cccc(Cl)c2S(=O)(=O)N1CSc1nnnn1-c1ccccc1 [Example 30AG]
pKi: < 6.00

Compound: O=C1c2ccccc2S(=O)(=O)N1COc1c(Cl)cccc1Cl [Example 30BB]
pKi: < 6.30
